# System: Human immunodeficiency virus 1
# ASSAY_NAME: Antiviral activity against HIV1 with RT connection domain Y181C/N348I mutant transfected in HEK293 cells assessed as inhibition of viral replication relative to HIV1 NL4-3
# Type: functional

| MOLECULE | fold change (FC) |
| --- | --- |
| CC(C)Nc1cccnc1N1CCN(C(=O)c2cc3cc(NS(C)(=O)=O)ccc3[nH]2)CC1 [DELAVIRDINE] | >250 |
| Cc1cn([C@H]2C[C@H](N=[N+]=[N-])[C@@H](CO)O2)c(=O)[nH]c1=O [ZIDOVUDINE] | 0.7 |
| O=C1Nc2ccc(Cl)cc2[C@@](C#CC2CC2)(C(F)(F)F)O1 [EFAVIRENZ] | 3.2 |
| Cc1ccnc2c1NC(=O)c1cccnc1N2C1CC1 [NEVIRAPINE] | >400 |

====

# System: Human immunodeficiency virus 1
# ASSAY_NAME: Antiviral activity against HIV1 with RT connection domain T369V mutant transfected in HEK293 cells assessed as inhibition of viral replication relative to HIV1 NL4-3
# Assay type: functional

| MOL_SMILES | fold change (FC) |
| --- | --- |
| O=C1Nc2ccc(Cl)cc2[C@@](C#CC2CC2)(C(F)(F)F)O1 | 3.1 |
| Cc1cn([C@H]2C[C@H](N=[N+]=[N-])[C@@H](CO)O2)c(=O)[nH]c1=O | 2.1 |
| CC(C)Nc1cccnc1N1CCN(C(=O)c2cc3cc(NS(C)(=O)=O)ccc3[nH]2)CC1 | 5.5 |
| Cc1ccnc2c1NC(=O)c1cccnc1N2C1CC1 | 9.2 |

====

# Tested on: Human immunodeficiency virus 1
# ASSAY_NAME: Antiviral activity against HIV1 with RT connection domain L100I mutant transfected in HEK293 cells assessed as inhibition of viral replication relative to HIV1 NL4-3
# Assay type: functional
Recorded measurements of fold change (FC), one per entry
PROPERTY_LABEL: fold change (FC)

| MOL_SMILES | ASSAY_VALUE |
| --- | --- |
| Cc1ccnc2c1NC(=O)c1cccnc1N2C1CC1 | 2.1 |
| Cc1cn([C@H]2C[C@H](N=[N+]=[N-])[C@@H](CO)O2)c(=O)[nH]c1=O | 0.1 |
| CC(C)Nc1cccnc1N1CCN(C(=O)c2cc3cc(NS(C)(=O)=O)ccc3[nH]2)CC1 | 34 |
| O=C1Nc2ccc(Cl)cc2[C@@](C#CC2CC2)(C(F)(F)F)O1 | 9 |

====

Quick list: fold change (FC) per entry.
# Tested on: Human immunodeficiency virus 1
# ASSAY_NAME: Antiviral activity against HIV1 with RT connection domain G190A/T369I mutant transfected in HEK293 cells assessed as inhibition of viral replication relative to HIV1 NL4-3
# Format: functional

| MOL_SMILES | MODIFIER_SIGN | fold change (FC) |
| --- | --- | --- |
| O=C1Nc2ccc(Cl)cc2[C@@](C#CC2CC2)(C(F)(F)F)O1 | = | 33.7 |
| Cc1ccnc2c1NC(=O)c1cccnc1N2C1CC1 | > | 400 |
| CC(C)Nc1cccnc1N1CCN(C(=O)c2cc3cc(NS(C)(=O)=O)ccc3[nH]2)CC1 | = | 1.2 |
| Cc1cn([C@H]2C[C@H](N=[N+]=[N-])[C@@H](CO)O2)c(=O)[nH]c1=O | = | 1.7 |
